Target: eukaryotic translation initiation factor 4E (eIF4E) (Mus musculus, UniProt P63073)
Sequence (P63073 whole entry): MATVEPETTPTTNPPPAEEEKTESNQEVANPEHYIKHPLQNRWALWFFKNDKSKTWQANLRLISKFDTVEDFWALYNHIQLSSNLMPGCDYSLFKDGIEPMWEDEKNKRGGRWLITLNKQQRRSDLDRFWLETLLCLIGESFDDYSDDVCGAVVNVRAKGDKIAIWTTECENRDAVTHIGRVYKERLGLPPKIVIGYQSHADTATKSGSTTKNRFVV
Assay: pyrene-probe fluorescent competitive-binding assay (PyFLINT-B) for cap analog-eIF4E
Conditions: Table S2
ASSAY READOUT: pEC50
Answers are plain numbers, as −log10 of the molar value.

Cc1cccc(C[n+]2cn([C@@H]3O[C@H](COP(=O)(O)OP(=O)([O-])OP(=O)(O)OC[C@H]4O[C@@H](n5cnc6c(=O)[nH]c(N)nc65)[C@H](O)[C@@H]4O)[C@@H](O)[C@H]3O)c3nc(N)nc(O)c32)c1 5.43

Please look at the following compound next.
// lookup pEC50 | system=eukaryotic translation initiation factor 4E (eIF4E) (Mus musculus, UniProt P63073) | key= Nc1nc(O)c2c(n1)n([C@@H]1O[C@H](COP(=O)(O)OP(=O)([O-])OP(=O)(O)OC[C@H]3O[C@@H](n4cnc5c(=O)[nH]c(N)nc54)[C@H](O)[C@@H]3O)[C@@H](O)[C@H]1O)c[n+]2Cc1ccc2ccccc2c1
4.92

====

Molecular target: eIF4E (Mus musculus, UniProt P63073)
Sequence (P63073 whole entry): as above
Assay: fluorescence anisotropy (FA) competition assay with eIF4E
Assay type: binding
Details: Table S2; calculated from EC50
ASSAY READOUT: pKd
Give bare numbers, as −log10 of the molar value.

Check out these entries, answers already filled in.
COMPOUND	ASSAY TARGET	pKd
Cn1c[n+]([C@@H]2O[C@H](COP(=O)(O)OP(=O)([O-])OP(=O)(O)OC[C@H]3O[C@@H](n4cnc5c(=O)[nH]c(N)nc54)[C@H](O)[C@@H]3O)[C@@H](O)[C@H]2O)c2nc(N)[nH]c(=O)c21 [m^7GpppG, reference compound]	eIF4E (Mus musculus, UniProt P63073)	6.90
Nc1nc(O)c2c(n1)n([C@@H]1O[C@H](COP(=O)(O)OP(=O)([O-])OP(=O)(O)OC[C@H]3O[C@@H](n4cnc5c(=O)[nH]c(N)nc54)[C@H](O)[C@@H]3O)[C@@H](O)[C@H]1O)c[n+]2Cc1ccc(Br)cc1 [1i, 4-Br-Bn^7GpppG]	eIF4E (Mus musculus, UniProt P63073)	7.28
CO[C@@H]1[C@H](O)[C@@H](COP(=O)(O)OP(=O)([O-])OP(=O)(O)OC[C@H]2O[C@@H](n3cnc4c(=O)[nH]c(N)nc43)[C@H](O)[C@@H]2O)O[C@H]1n1c[n+](Cc2ccccc2)c2c(O)nc(N)nc21 [1q, Bn^7GmpppG]	eIF4E (Mus musculus, UniProt P63073)	7.40

Request the reported pKd associated with Nc1nc(O)c2c(n1)n([C@@H]1O[C@H](COP(=O)(O)OP(=O)([O-])OP(=O)(O)OC[C@H]3O[C@@H](n4cnc5c(=O)[nH]c(N)nc54)[C@H](O)[C@@H]3O)[C@@H](O)[C@H]1O)c[n+]2Cc1cccc2ccccc12 [1o, α-Naphm^7GpppG]
6.13

====

Molecular target: hDcpS (Homo sapiens, UniProt Q96C86)
Sequence (Q96C86 1-337): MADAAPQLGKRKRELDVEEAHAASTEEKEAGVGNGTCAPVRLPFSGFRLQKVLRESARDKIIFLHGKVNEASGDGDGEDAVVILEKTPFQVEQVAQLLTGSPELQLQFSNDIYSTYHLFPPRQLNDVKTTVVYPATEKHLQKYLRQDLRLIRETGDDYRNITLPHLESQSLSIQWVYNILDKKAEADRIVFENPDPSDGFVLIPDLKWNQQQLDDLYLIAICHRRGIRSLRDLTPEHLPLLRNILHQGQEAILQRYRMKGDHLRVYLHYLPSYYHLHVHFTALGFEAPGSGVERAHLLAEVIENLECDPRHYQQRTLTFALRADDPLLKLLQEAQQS
Format: in vitro ADME
Settings: 100 μM compound, 20 nM hDcpS
ASSAY READOUT: conversion after 1 h of incubation with hDcpS

MOLECULE	ENDPOINT VALUE
Nc1nc(O)c2c(n1)n([C@@H]1O[C@H](COP(=O)(O)OP(=O)([O-])OP(=O)(O)OC[C@H]3O[C@@H](n4cnc5c(=O)[nH]c(N)nc54)[C@H](O)[C@@H]3O)[C@@H](O)[C@H]1O)c[n+]2Cc1ccccc1	approximately 50%
Cn1c[n+]([C@@H]2O[C@H](COP(=O)(O)OP(=O)([O-])OP(=O)(O)OC[C@H]3O[C@@H](n4cnc5c(=O)[nH]c(N)nc54)[C@H](O)[C@@H]3O)[C@@H](O)[C@H]2O)c2nc(N)[nH]c(=O)c21 [m^7GpppG, reference compound]	approximately 50%

Source listed as paper PMC8623273.
